- Test system: Streptococcus pneumoniae GC 1894
- measurement.notes: MIC by broth dilution, Streptococcus pneumoniae GC 1894
- Assay type: cell-based
- assay.conditions: Streptococcus pneumoniae, GC1894, Streptococcus pneumoniae GC 1894* (5% LHB); read-out: MIC
readout.type: MIC (µg/mL)
Your answer should be a plain number; it is taken to be in µg/mL.

Answered examples (4):
compound="COc1c2ccc3c(=O)c4cc(C)n(CC(=O)N5CC(C(=O)OCc6ccccc6)NC(=O)C5C)c(=O)c4c(=O)c3c2c(O)c2c(=O)c3cccc(O)c3c(=O)c12 (stereo not drawn) [Example 7, P175-A benzyl ester]" readout_type=MIC readout_units=µg/mL value_reported=0.5
compound="COc1c2ccc3c(=O)c4cc(C)n(CC(=O)N5CC(C(=O)OC(C)C)NC(=O)C5C)c(=O)c4c(=O)c3c2c(O)c2c(=O)c3cccc(O)c3c(=O)c12 (stereo not drawn) [Example 6, P175-A isopropyl ester]" readout_type=MIC readout_units=µg/mL value_reported=2
compound="COC(=O)C1CN(C(=O)Cn2c(C)cc3c(=O)c4ccc5c(OC)c6c(=O)c7c(O)cccc7c(=O)c6c(O)c5c4c(=O)c3c2=O)C(C)C(=O)N1 (stereo not drawn) [Example 4, P175-A methyl ester]" readout_type=MIC readout_units=µg/mL value_reported=1
compound="CCOC(=O)C1CN(C(=O)Cn2c(C)cc3c(=O)c4ccc5c(OC)c6c(=O)c7c(O)cccc7c(=O)c6c(O)c5c4c(=O)c3c2=O)C(C)C(=O)N1 (stereo not drawn) [Example 5, P175-A ethyl ester]" readout_type=MIC readout_units=µg/mL value_reported=0.5

Now for the compound whose MIC we want.
### Prompt Quickly give me recorded MIC for COc1c2ccc3c(=O)c4cc(C)n(CC(=O)N5CC(C(=O)O)NC(=O)C5C)c(=O)c4c(=O)c3c2c(O)c2c(=O)c3cccc(O)c3c(=O)c12 (stereo not drawn) [Example 3, P175-A]
### Response 16

---

- Test system: Streptococcus pneumoniae GC 1894
- measurement.notes: MIC by broth dilution, Streptococcus pneumoniae GC 1894
- Assay type: cell-based
- assay.conditions: Streptococcus pneumoniae, GC1894, Streptococcus pneumoniae GC 1894+ (THY); read-out: MIC
readout.type: MIC (µg/mL)
Your answer should be a plain number; it is taken to be in µg/mL.

molecule="COc1c2ccc3c(=O)c4cc(C)n(CC(=O)N5CC(C(=O)O)NC(=O)C5C)c(=O)c4c(=O)c3c2c(O)c2c(=O)c3cccc(OCC(=O)O)c3c(=O)c12 (stereo not drawn) [Example 9D]" readout_type=MIC value_reported=64
molecule="COc1c2ccc3c(=O)c4cc(C)n(CC(=O)N5CC(C(=O)OC(C)C)NC(=O)C5C)c(=O)c4c(=O)c3c2c(O)c2c(=O)c3cccc(O)c3c(=O)c12 (stereo not drawn) [Example 6, P175-A isopropyl ester]" readout_type=MIC value_reported=4

### Prompt Quickly give me recorded MIC for COC(=O)C1CN(C(=O)Cn2c(C)cc3c(=O)c4ccc5c(OC)c6c(=O)c7c(O)cccc7c(=O)c6c(O)c5c4c(=O)c3c2=O)C(C)C(=O)N1 (stereo not drawn) [Example 4, P175-A methyl ester]
### Response 2

---

- Tested on: Streptococcus pneumoniae GC 1894
- measurement.notes: MIC by broth dilution, Streptococcus pneumoniae GC 1894
- Assay type: cell-based
- assay.conditions: Streptococcus pneumoniae, GC1894, Streptococcus pneumoniae GC 1894+ (THY); read-out: MIC
Recorded MIC values for a group of compounds are listed next.
Could you kindly put the unit after your number?

compound="CCOC(=O)C1CN(C(=O)Cn2c(C)cc3c(=O)c4ccc5c(OC)c6c(=O)c7c(O)cccc7c(=O)c6c(O)c5c4c(=O)c3c2=O)C(C)C(=O)N1 (stereo not drawn) [Example 5, P175-A ethyl ester]" readout_type=MIC value_reported="1 µg/mL"
compound="COc1c2ccc3c(=O)c4cc(C)n(CC(=O)N5CC(C(=O)O)NC(=O)C5C)c(=O)c4c(=O)c3c2c(O)c2c(=O)c3cccc(O)c3c(=O)c12 (stereo not drawn) [Example 3, P175-A]" readout_type=MIC value_reported="8 µg/mL"

Now for the compound whose MIC we want.
### Prompt Quickly give me recorded MIC for COc1c2ccc3c(=O)c4cc(C)n(CC(=O)N5CC(C(=O)OCc6ccccc6)NC(=O)C5C)c(=O)c4c(=O)c3c2c(O)c2c(=O)c3cccc(O)c3c(=O)c12 (stereo not drawn) [Example 7, P175-A benzyl ester]
### Response 0.25 µg/mL

---

The listing below reports MIC for compounds tested on Escherichia coli (imp).

Answered examples (5):
compound="CCOC(=O)C1CN(C(=O)Cn2c(C)cc3c(=O)c4ccc5c(OC)c6c(=O)c7c(O)cccc7c(=O)c6c(O)c5c4c(=O)c3c2=O)C(C)C(=O)N1 (stereo not shown)" readout_type=MIC value_reported="16 µg/mL"
compound="COc1c2ccc3c(=O)c4cc(C)n(CC(=O)N5CC(C(=O)OCc6ccccc6)NC(=O)C5C)c(=O)c4c(=O)c3c2c(O)c2c(=O)c3cccc(O)c3c(=O)c12 (stereo not shown)" readout_type=MIC value_reported="32 µg/mL"
compound="COc1c2ccc3c(=O)c4cc(C)n(CC(=O)N5CC(C(=O)O)NC(=O)C5C)c(=O)c4c(=O)c3c2c(O)c2c(=O)c3cccc(O)c3c(=O)c12 (stereo not shown)" readout_type=MIC value_reported="8 µg/mL"
compound="COc1c2ccc3c(=O)c4cc(C)n(CC(=O)N5CC(C(=O)O)NC(=O)C5C)c(=O)c4c(=O)c3c2c(O)c2c(=O)c3cccc(OCC(=O)O)c3c(=O)c12 (stereo not shown)" readout_type=MIC value_reported="> 64 µg/mL"
compound="COC(=O)COC(=O)C1CN(C(=O)Cn2c(C)cc3c(=O)c4ccc5c(OC)c6c(=O)c7c(O)cccc7c(=O)c6c(O)c5c4c(=O)c3c2=O)C(C)C(=O)N1 (stereo not shown)" readout_type=MIC value_reported="8 µg/mL"

### Prompt Please indicate recorded MIC of COc1c2ccc3c(=O)c4cc(C)n(CC(=O)N5CC(C(=O)OC(C)C)NC(=O)C5C)c(=O)c4c(=O)c3c2c(O)c2c(=O)c3cccc(O)c3c(=O)c12 (stereo not shown) measured with Escherichia coli (imp).
### Response 16 µg/mL

### Prompt Please indicate recorded MIC of COC(=O)C1CN(C(=O)Cn2c(C)cc3c(=O)c4ccc5c(OC)c6c(=O)c7c(O)cccc7c(=O)c6c(O)c5c4c(=O)c3c2=O)C(C)C(=O)N1 (stereo not shown) measured with Escherichia coli (imp).
### Response 4 µg/mL
